// provenance: patent US20230287027A1

Please provide measured pEC50 for the entries that follow.
Molecular target: human TLR4 (Homo sapiens, UniProt O00206+Q9Y6Y9)
Sequence (O00206 24-839): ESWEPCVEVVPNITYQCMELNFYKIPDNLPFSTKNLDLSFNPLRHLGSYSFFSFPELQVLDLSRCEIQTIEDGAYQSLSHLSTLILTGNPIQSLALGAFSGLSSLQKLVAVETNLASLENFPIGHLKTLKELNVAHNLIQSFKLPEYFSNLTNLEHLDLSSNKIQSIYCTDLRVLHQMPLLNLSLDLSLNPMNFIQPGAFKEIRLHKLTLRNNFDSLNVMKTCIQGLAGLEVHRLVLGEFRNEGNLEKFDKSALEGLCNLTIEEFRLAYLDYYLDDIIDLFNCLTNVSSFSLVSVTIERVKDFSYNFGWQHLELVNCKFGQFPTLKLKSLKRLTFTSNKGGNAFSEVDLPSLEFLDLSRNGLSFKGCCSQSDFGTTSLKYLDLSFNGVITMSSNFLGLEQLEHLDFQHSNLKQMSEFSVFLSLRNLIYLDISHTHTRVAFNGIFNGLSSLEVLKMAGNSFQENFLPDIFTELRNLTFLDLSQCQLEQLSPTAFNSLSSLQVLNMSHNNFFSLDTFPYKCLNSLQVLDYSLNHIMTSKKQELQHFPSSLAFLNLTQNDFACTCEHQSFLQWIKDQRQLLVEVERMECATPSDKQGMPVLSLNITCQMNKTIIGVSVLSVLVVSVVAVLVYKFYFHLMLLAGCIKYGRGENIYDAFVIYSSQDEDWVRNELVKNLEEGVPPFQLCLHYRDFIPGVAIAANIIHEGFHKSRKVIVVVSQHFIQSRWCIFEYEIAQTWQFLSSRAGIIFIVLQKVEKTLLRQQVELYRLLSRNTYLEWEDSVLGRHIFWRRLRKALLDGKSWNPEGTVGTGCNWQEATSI
Sequence (Q9Y6Y9 17-160 limits assumed): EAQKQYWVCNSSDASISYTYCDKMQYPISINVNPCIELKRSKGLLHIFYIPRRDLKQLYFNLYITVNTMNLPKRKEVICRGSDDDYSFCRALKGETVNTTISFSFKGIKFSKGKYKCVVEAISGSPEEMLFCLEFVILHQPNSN
Assay: Human TLR4 reporter gene assay (Test 1)
Conditions: HEK-Blue hTLR4 cell line, SEAP reporter, 37° C. 16-20 hours, 0.1% DMSO; concentration giving half of maximal SEAP level induced with LPS
Answers are plain numbers, as −log10 of the molar value.

// worked examples, pEC50 included
Molecule: CCCCCCCCCCC[C@H](CC(=O)NC1C(OC[C@@H](NC(=O)C[C@@H](CCCCCCCCCCC)OC(=O)CCCCCCCCC)C(=O)O)OC(CO)C(O)C1OC(=O)C[C@@H](CCCCCCCCCCC)OC(=O)CCCCCCCCC)OC(=O)CCCCCCCCc1ccccc1 (stereo partly shown)
Tested System: human TLR4 (Homo sapiens, UniProt O00206+Q9Y6Y9)
pEC50: 6.79
--
Molecule: CCCCCCCCCCC[C@H](CC(=O)NC(COC1OC(CO)C(OP(=O)(O)O)C(OC(=O)C[C@@H](CCCCCCCCCCC)OC(=O)CCCCCCCCC)C1NC(=O)C[C@@H](CCCCCCCCCCC)OC(=O)CCCCCCCCC)C(=O)O)OC(=O)CCCCCCCCc1ccccc1 (stereo partly shown) [compound 13]
Tested System: human TLR4 (Homo sapiens, UniProt O00206+Q9Y6Y9)
pEC50: 7.47
--
Molecule: CCCCCCCCCCC[C@H](CC(=O)NC1C(OC[C@@H](NC(=O)C[C@@H](CCCCCCCCCCC)OC(=O)CCCCCCCCC)C(=O)O)OC(CO)C(OP(=O)(O)O)C1OC(=O)C[C@@H](CCCCCCCCCCC)OC(=O)CCCCCCCCc1ccccc1)OC(=O)CCCCCCCCC (stereo partly shown) [Reference example 9, reference compound]
Tested System: human TLR4 (Homo sapiens, UniProt O00206+Q9Y6Y9)
pEC50: 7.36
--
Molecule: CCCCCCCCCCC[C@H](CC(=O)NC(COC1OC(CO)C(OP(=O)(O)O)C(OC(=O)C[C@@H](CCCCCCCCCCC)OC(=O)CCCCCCCCC)C1NC(=O)C[C@@H](CCCCCCCCCCC)OC(=O)CCCCCCCCC)C(=O)O)OC(=O)CCCCCCCCc1ccccc1 (stereo partly shown) [compound 14]
Tested System: human TLR4 (Homo sapiens, UniProt O00206+Q9Y6Y9)
pEC50: 7.85
--
Molecule: CCCCCCCCCCC[C@H](CC(=O)NC(COC1OC(CO)C(OP(=O)(O)O)C(OC(=O)C[C@@H](CCCCCCCCCCC)OC(=O)CCCCCCCCc2ccccc2)C1NC(=O)C[C@@H](CCCCCCCCCCC)OC(=O)CCCCCCCCC)C(=O)O)OC(=O)CCCCCCCCC (stereo partly shown) [Reference example 10]
Tested System: human TLR4 (Homo sapiens, UniProt O00206+Q9Y6Y9)
pEC50: 7.89

**Q:** Sample CCCCCCCCCCC[C@H](CC(=O)NC(COC1OC(CO)C(OP(=O)(O)O)C(OC(=O)C[C@@H](CCCCCCCCCCC)OC(=O)CCCCCCCCC)C1NC(=O)C[C@@H](CCCCCCCCCCC)OC(=O)CCCCCCCCc1ccccc1)C(=O)O)OC(=O)CCCCCCCCC (single isomer, unassigned) [compound 11] — what was its pEC50?
**A:** 6.34
